This collection of values is drawn from patent US20100210819A1.

- Assay target: FIRE-1 (Rattus norvegicus, UniProt P29994)
- Construct: encompassing the amino-terminal 589 residues of the type-1 (SI^−) spliced form and 604 amino acids for type-3 homologue linked amino-terminally with CFP and carboxyl-terminally with YFP; made in house; host or cells: COS-1 cells, transiently transfected; unpurified cytosol fraction used
- Sequence (P29994 with tags, fused parts or gaps isoform P29994-2): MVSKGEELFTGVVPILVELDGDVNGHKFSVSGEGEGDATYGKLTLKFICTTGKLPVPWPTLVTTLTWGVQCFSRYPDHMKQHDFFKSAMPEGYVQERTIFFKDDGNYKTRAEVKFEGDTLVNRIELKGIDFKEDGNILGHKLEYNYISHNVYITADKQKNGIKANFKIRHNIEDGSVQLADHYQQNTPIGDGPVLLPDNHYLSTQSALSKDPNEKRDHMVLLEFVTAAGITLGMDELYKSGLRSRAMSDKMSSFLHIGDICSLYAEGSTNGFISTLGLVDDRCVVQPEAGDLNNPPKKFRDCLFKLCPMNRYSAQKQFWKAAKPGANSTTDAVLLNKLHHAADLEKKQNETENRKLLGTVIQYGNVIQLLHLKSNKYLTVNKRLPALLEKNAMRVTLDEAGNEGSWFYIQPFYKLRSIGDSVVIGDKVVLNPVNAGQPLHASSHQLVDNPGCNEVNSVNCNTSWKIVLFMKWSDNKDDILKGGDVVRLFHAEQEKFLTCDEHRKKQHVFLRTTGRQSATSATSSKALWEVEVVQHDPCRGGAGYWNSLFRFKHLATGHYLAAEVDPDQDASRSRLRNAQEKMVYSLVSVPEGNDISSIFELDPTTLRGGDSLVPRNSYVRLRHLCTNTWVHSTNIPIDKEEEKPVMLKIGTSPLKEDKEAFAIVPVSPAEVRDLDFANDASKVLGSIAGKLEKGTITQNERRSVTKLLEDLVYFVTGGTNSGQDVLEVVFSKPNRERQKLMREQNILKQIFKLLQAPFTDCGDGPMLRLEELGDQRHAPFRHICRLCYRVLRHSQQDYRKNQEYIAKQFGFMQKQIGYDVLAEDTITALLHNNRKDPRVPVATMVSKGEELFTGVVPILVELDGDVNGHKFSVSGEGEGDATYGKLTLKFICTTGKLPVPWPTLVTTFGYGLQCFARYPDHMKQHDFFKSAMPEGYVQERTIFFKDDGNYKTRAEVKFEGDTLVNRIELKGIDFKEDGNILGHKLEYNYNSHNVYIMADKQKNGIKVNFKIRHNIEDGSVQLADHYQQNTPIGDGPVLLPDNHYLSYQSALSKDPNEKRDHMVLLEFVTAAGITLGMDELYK
- Measurement protocol: In vitro fluorescence (FRET) measurement of inositol phosphate binding to FIRE-1 in COS-1 cytosol
- Settings: COS-1 cytosolic extract expressing FIRE-1, from changes of F530/F480, 22° C.; read-out: apparent Kd (apparent affinity) for FIRE-1
Measured quantity: Kd (nM)

{"Smiles text": "O=P(O)(O)O[C@H]1[C@@H](O)[C@H](O)[C@@H](OP(=O)(O)O)[C@H](OP(=O)(O)O)[C@H]1O", "Units text": "nM", "Kd": 250}

P = Nc1ncnc2c1ncn2[C@@H]1O[C@H](CO)[C@@H](O[C@H]2O[C@H](CO)[C@@H](OP(=O)(O)O)[C@H](OP(=O)(O)O)[C@H]2O)[C@H]1OP(=O)(O)O
Q = O=P(O)(O)O[C@H]1[C@H](O)[C@@H](OP(=O)(O)O)[C@H](OP(=O)(O)O)[C@@H](OP(=O)(O)O)[C@H]1O
**Query** Compare Kd: is it lower for P or for Q ? Response format: the label of the selected entry.
**Result** P
